# assay_remarks: in vivo
# experimental_setup: both, dog, serum, oral, 15 mg/kg BW

{"columns": ["compound", "concentration at 3.5 h"],
 "data": [
  ["CC1=C(C(=O)O)N2C(=O)[C@@H](NC(=O)[C@H](N)c3ccccc3)[C@H]2SC1 [Cephalexin, cephalexin]", "11800 ng/mL"]
]}

* * *

# assay_remarks: in vivo
# experimental_setup: both, Labrador Retriever, dog, serum, oral, 15 mg/kg BW

{"columns": ["query_smiles", "unit_tag", "concentration at 4 h"],
 "data": [
  ["CC1=C(C(=O)O)N2C(=O)[C@@H](NC(=O)[C@H](N)c3ccccc3)[C@H]2SC1", "ng/mL", 11300]
]}

All values here come from patent US8492331B2.
